tgt: NDM-1 (Klebsiella pneumoniae)
Sequence (C7C422 whole entry, looked up, species assumed): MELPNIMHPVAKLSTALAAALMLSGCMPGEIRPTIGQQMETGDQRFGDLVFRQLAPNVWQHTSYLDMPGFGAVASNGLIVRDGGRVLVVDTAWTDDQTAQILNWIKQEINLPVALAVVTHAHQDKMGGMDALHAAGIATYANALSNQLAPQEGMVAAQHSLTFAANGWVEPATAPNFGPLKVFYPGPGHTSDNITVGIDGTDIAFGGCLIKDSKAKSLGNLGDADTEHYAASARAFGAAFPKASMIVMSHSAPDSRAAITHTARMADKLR
assayMethodText: biochemical
Assay type: biochemical
measurementConditions: fluorescence assay with CCF2-FA substrate; read-out: NDM-1 IC50
valueType: IC50 (µM)
Answers are plain numbers, in µM.

Worked set:
| compound | IC50 [µM] |
| --- | --- |
| Cc1cc2nccn2cc1-c1cccc(S(N)(=O)=O)c1-c1nnn[nH]1 [Example 115] | 0.00781 |
| NCCN1CC(c2ccc(-c3ccc(C(F)(F)F)c(S(N)(=O)=O)c3-c3nnn[nH]3)cc2)C1 [Example 812] | 0.0027 |
| Cc1ccc(-c2ccnc(S(N)(=O)=O)c2-c2nnn[nH]2)cc1 [Example 190] | 0.232 |

Data request: Answer with reported IC50 of NS(=O)(=O)c1cccc(-c2cccc(S(N)(=O)=O)c2-c2nnn[nH]2)c1 [Example 118]
Data returned: 0.0442
